// provenance: patent US20190202883A1

Target: T1, human GIPR (human, UniProt P48546 22-466)
T1 sequence (looked up): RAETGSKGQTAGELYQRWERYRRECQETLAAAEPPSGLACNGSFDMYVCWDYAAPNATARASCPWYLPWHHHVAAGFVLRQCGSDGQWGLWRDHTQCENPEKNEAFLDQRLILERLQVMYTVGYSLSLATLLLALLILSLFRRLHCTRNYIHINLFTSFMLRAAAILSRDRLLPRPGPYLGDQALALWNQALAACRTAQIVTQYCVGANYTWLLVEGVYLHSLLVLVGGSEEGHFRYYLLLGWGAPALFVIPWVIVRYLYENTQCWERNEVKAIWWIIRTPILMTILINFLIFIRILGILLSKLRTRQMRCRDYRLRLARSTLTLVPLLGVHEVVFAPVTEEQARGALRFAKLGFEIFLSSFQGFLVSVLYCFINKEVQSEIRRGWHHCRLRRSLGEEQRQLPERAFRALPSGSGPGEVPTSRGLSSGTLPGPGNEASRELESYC
Experiment: cell-based or functional assay
Square brackets hold non-standard residues; d marks the D form. Side chains are listed from the residue outwards. αMeF = C[C@](N)(Cc1ccccc1)C(=O)O; Iva = CC[C@](C)(N)C(=O)O; Oda = not defined here; Aib = CC(C)(N)C(=O)O
property-measured: Agonist activity (EC50), Cre-luc reporter assay (nM)
Just the number please, in nM, no unit attached.

Me-Y[Aib]EGT[αMeF]TSDK([Gly-Gly-Gly-Gly-Oda])AI[Aib]LDKQRQ[Iva]EFVRHLLNK[Aib]TRQRY-NH2 (reading uncertain; also: printed as Me-Tyr-Aib-Glu-Gly-Thr-αMePhe-Thr-Ser-Asp-Lys(-Gly-Gly-Gly-Gly-Oda)-Ala-Ile-Aib-Leu-Asp-Lys-Gln-Arg-Gln-Iva-Glu-Phe-Val-Arg-His-Leu-Leu-Asn-Lys-Aib-Thr-Arg-Gln-Arg-Tyr-NH2)
0.17

For the next question, use this binder.
Prompt line: For H-Y[Aib]EGT[αMeF]TSDK([Gly-Gly-Gly-Gly-Oda])SI[Aib]LEKQRQ[Iva]EFVRHLLNK[Aib]TRQRY-NH2 (reading uncertain; also: printed as H-Tyr-Aib-Glu-Gly-Thr-αMePhe-Thr-Ser-Asp-Lys(-Gly-Gly-Gly-Gly-Oda)-Ser-Ile-Aib-Leu-Glu-Lys-Gln-Arg-Gln-Iva-Glu-Phe-Val-Arg-His-Leu-Leu-Asn-Lys-Aib-Thr-Arg-Gln-Arg-Tyr-NH2) , what is its reported Agonist activity (EC50), Cre-luc reporter assay?
Response line: 0.17
